These data points were gathered from patent US10689354B2.

biological target: androgen receptor (AR-LBD) (Rattus norvegicus); construct: 5 μL of 2×AR-LBD/Fluoromone AL Red Complex contained in the kit; purchased Invitrogen; assay: Evaluation of androgen receptor affinity (PolarScreen Androgen Receptor Competitor Assay Kit, Red; fluorescence polarization); details: 22° C. for 5 hours, relative to binding rate of 1 μM DHT, read-out: AR affinity (pEC50) (converted)
Reported EC50 by item:

Before answering, review these 6 worked examples.
{"columns": ["COMPOUND", "TEST_TARGET", "EC50"],
 "data": [
  ["Cc1sc(N(Cc2ccccc2)c2ccc(C#N)cc2)nc1C(=O)NS(=O)(=O)c1cccnc1 [Compound 381]", "androgen receptor (AR-LBD) (Rattus norvegicus)", "0.794 µM"],
  ["Cc1sc(N(CCc2ccc(C#N)cc2)CC2CCCCC2)nc1C(=O)NS(C)(=O)=O [Compound 716]", "androgen receptor (AR-LBD) (Rattus norvegicus)", "0.631 µM"],
  ["Cc1sc(N(CCC2CCCCO2)c2ccc(C#N)cc2)nc1C(=O)NS(C)(=O)=O (stereo not shown) [Compound 443]", "androgen receptor (AR-LBD) (Rattus norvegicus)", "0.2 µM"],
  ["COCCCS(=O)(=O)NC(=O)c1nc(N(Cc2ncc(Br)cc2F)c2ccc(C#N)cc2)sc1C [Compound 535]", "androgen receptor (AR-LBD) (Rattus norvegicus)", "0.126 µM"],
  ["Cc1sc(N(Cc2ccccc2)c2ccccc2OC(F)(F)F)nc1C(=O)NS(C)(=O)=O [Compound 27]", "androgen receptor (AR-LBD) (Rattus norvegicus)", "> 2 µM"],
  ["COCCCS(=O)(=O)NC(=O)c1nc(N(Cc2ccc(C(F)(F)F)nc2)c2ccc(C#N)cc2)sc1C [Compound 164]", "androgen receptor (AR-LBD) (Rattus norvegicus)", "0.251 µM"]
]}

Provide value of EC50 for this record tested with androgen receptor (AR-LBD) (Rattus norvegicus): Cc1sc(N(CCc2cccc(C#N)c2)Cc2ccccc2)nc1C(=O)NS(C)(=O)=O [Compound 672]
0.251 µM

// map Cc1sc(N(Cc2ccccc2)c2ccc(C#N)cc2)nc1C(=O)NS(=O)(=O)Cc1ccccc1 [Compound 374] to recorded EC50 (system: androgen receptor (AR-LBD) (Rattus norvegicus))
0.0398 µM

// fetch androgen receptor (AR-LBD) (Rattus norvegicus) EC50 for COCCCS(=O)(=O)NC(=O)c1nc(N(Cc2ccc(OC(F)F)cc2)c2ccc(C#N)cc2)sc1C [Example 165]
0.0501 µM

androgen receptor (AR-LBD) (Rattus norvegicus) / EC50 / Cc1sc(N(CCC2CCCCC2)Cc2ccc(Cl)cc2)nc1C(=O)NS(=O)(=O)Cc1cccnc1 [Compound 325] : value?
0.0316 µM

* * *

Biological target: human androgen receptor (Homo sapiens, UniProt P10275)
Construct: expressed in transfected cells; host or cells: HEK293
Sequence (P10275 1-920): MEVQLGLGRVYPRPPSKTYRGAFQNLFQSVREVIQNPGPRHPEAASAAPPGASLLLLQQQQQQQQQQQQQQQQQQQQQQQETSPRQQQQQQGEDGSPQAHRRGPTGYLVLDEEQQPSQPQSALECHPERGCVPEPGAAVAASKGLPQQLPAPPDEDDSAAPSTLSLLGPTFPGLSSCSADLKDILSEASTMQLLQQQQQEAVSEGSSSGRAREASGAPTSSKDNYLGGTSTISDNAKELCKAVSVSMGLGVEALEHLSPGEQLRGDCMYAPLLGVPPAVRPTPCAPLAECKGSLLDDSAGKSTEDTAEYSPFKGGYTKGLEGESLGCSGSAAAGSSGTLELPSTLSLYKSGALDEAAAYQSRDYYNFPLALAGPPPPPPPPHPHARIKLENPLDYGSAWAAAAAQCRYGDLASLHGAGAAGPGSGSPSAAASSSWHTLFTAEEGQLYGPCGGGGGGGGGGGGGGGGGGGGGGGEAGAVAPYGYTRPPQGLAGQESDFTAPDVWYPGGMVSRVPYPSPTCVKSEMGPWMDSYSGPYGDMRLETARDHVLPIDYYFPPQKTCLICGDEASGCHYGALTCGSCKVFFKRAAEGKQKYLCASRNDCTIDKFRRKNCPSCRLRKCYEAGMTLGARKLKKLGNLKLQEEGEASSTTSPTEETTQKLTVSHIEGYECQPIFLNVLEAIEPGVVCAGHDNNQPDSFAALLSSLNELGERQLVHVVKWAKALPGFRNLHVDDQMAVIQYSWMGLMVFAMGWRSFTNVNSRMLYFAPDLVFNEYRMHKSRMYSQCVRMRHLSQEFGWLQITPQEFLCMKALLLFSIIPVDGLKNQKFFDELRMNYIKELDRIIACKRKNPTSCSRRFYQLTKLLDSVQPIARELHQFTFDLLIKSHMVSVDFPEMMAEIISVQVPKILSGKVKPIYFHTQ
Test: Reporter assay of an androgen receptor responsive sequence (luciferase, transiently transfected HEK293 cells)
Format: cell-based
Details: 24 hours incubation, relative to activity of 100 nM DHT, read-out: AR transcriptive activity (pEC50) (converted)
# maps each entry to its EC50

{"columns": ["COMPOUND", "EC50"],
 "data": [
  ["COCCCS(=O)(=O)NC(=O)c1nc(N(Cc2ccc(Cl)cc2)c2ccc(C#N)cc2)sc1C1CC1 [Compound 665]", "> 10000 nM"],
  ["CSc1ccc(CN(c2ccc(C#N)cc2)c2nc(C(=O)NS(C)(=O)=O)c(C)s2)cc1 [Compound 11]", "50.1 nM"],
  ["COCCCS(=O)(=O)NC(=O)c1nc(N(Cc2ccc(Cl)cn2)c2ccc(C#N)cc2)sc1C [Compound 163]", "251 nM"]
]}

Below: the item to evaluate.
Look up EC50 for this compound: Cc1sc(N(CCC2CCCC2)Cc2ccccc2)nc1C(=O)NS(C)(=O)=O [Compound 683]
> 10000 nM
